Data provenance is PubChem BioAssay (EPA / NIEHS).

target: human Matrix Metalloproteinase-1 (MMP1), MMP1 (gene 4312) (UniProt P03956); test: NVS_ENZ_hMMP1: NovaScreen (NVS) Enzymatic Assay for human Matrix Metalloproteinase-1 (MMP1) (AID 2283181)
Sequence (P03956 whole entry, looked up): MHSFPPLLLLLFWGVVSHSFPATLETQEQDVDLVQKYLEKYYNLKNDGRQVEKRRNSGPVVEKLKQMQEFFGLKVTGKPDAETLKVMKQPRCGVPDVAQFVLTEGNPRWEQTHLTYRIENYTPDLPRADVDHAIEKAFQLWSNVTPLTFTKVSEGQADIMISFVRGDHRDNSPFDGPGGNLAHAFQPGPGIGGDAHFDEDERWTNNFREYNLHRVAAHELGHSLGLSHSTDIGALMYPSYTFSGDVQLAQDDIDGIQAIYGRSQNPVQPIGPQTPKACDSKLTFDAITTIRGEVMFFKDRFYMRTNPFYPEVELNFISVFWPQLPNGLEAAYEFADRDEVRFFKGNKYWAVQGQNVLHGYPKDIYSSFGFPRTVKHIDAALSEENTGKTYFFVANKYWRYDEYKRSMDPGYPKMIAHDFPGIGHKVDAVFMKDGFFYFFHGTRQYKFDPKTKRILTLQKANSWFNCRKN
Inconclusive results are not listed. Calls of active or inactive are those of the source. How the source made its calls: active means hit-call score of the fitted dose curve at least 0.9, where 1 is the maximum; inconclusive means response in the unintended direction; inactive means score below 0.9.
Answer with one of the outcomes given here: active, inactive

Lookup: State the result this test recorded for "c1ccc2n[nH]nc2c1" .
Found: inactive

Lookup: State the result this test recorded for "Clc1cc(Cl)c(Cl)cc1Cl" .
Found: inactive

Lookup: State the result this test recorded for "CC(C)(O)c1coc(S(=O)(=O)NC(=O)Nc2c3c(cc4c2CCC4)CCC3)c1" .
Found: inactive

Lookup: State the result this test recorded for "CN1CCN(Cc2cc(-c3ccc4[nH]c(=O)oc4c3)co2)[C@@H](c2ccc(F)cc2)C1" .
Found: active

Lookup: State the result this test recorded for "CC(C)(C)c1csc(-c2cc3cc(OCc4ccccc4CC(=O)O)ccc3o2)n1" .
Found: active

Lookup: State the result this test recorded for "O=C(N[C@@H](Cc1ccccc1)[C@@H](O)C(=O)N1C[C@@H](O)[C@@H](O)C1)c1cc2cc(Cl)ccc2[nH]1" .
Found: inactive

Lookup: State the result this test recorded for CCC(C)c1ccccc1O (stereo unspecified) .
Found: active

Lookup: State the result this test recorded for "COc1ccc2sc(C(=O)Nc3nnn[nH]3)c(OC(C)C)c2c1" .
Found: inactive

Lookup: State the result this test recorded for "O=C(O)CCN(C1(C(=O)NO)CCCC1)S(=O)(=O)c1ccc(Oc2ccc(F)cc2)cc1" .
Found: active

Lookup: State the result this test recorded for CC(=O)OC1CC(C)OC(C)O1 (stereo unspecified) .
Found: inactive

Lookup: State the result this test recorded for "CCN(Cc1cccnc1)C(=O)c1cccc(Cl)c1[C@]1(C)C(=O)N(Cc2ccc(OC)cc2OC)c2ccc(Cl)cc21" .
Found: active
